# System: Ishikawa endometrial adenocarcinoma cell line
# Method description: Alkaline phosphatase (AlkP) activity in Ishikawa cells
# Type: cell-based, human
# Stated conditions: 1 µM, 72 h, DMSO set to 1
Define the label as Satisfied when Relative alkaline phosphatase activity is strictly less than 3 and as Not satisfied in all remaining cases.

Smiles repr | Target or system | Category
COc1ccc(C(C)=C(c2ccc(O)cc2)c2ccc(Cl)cc2)cc1F | Ishikawa endometrial adenocarcinoma cell line | Satisfied
COc1ccc(C(C)=C(c2ccc(Cl)cc2)c2ccc(OCCN3CCOCC3)cc2)cc1 | Ishikawa endometrial adenocarcinoma cell line | Not satisfied
COc1ccc(C(C)=C(c2ccc(Cl)cc2)c2ccc(OCCN(C)C)cc2)cc1F | Ishikawa endometrial adenocarcinoma cell line | Satisfied
CC(=C(c1ccc(Cl)cc1)c1ccc(OCCN2CCCC2)cc1)c1ccccc1 | Ishikawa endometrial adenocarcinoma cell line | Satisfied
COc1ccc(C(C)=C(c2ccc(Cl)cc2)c2ccc(OCCN3CCCCC3)cc2)cc1F | Ishikawa endometrial adenocarcinoma cell line | Satisfied
CC(=C(c1ccc(Cl)cc1)c1ccc(OCCN2CCCCC2)cc1)c1ccccc1 | Ishikawa endometrial adenocarcinoma cell line | Satisfied
COc1ccc(C(C)=C(c2ccc(Cl)cc2)c2ccc(OCCN3CCCCCC3)cc2)cc1 | Ishikawa endometrial adenocarcinoma cell line | Not satisfied

====

# Target or system: human ERα (Homo sapiens, UniProt P03372)
# Construct: host or cells: Saccharomyces cerevisiae
# Sequence (P03372 1-595): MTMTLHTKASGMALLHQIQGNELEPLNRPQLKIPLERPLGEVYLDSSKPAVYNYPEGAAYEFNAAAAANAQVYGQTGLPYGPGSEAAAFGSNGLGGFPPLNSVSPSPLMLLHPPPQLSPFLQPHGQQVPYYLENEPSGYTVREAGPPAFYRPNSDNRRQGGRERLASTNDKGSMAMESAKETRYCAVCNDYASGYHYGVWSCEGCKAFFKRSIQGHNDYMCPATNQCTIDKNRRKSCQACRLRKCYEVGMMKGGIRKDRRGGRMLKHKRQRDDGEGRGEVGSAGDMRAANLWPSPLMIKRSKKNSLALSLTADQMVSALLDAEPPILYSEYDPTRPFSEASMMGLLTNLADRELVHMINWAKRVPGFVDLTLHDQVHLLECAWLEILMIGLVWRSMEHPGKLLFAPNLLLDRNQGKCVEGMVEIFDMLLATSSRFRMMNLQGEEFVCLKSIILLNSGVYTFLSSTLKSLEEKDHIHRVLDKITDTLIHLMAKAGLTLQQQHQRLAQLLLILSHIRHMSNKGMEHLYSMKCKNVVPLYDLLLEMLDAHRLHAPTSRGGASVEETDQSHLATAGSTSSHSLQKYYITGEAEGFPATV
# Method description: Yeast estrogen screen (YES) assay, antagonistic activity (β-galactosidase reporter)
# Assay type: cell-based, yeast (Saccharomyces cerevisiae)
# Stated conditions: compounds at 1 µM in presence of 0.5 nM/1 nM E2 (E2 set as 1); triplicates
Value kind: Anti-Estrogenic Activity (relative β-galactosidase activity)

Molecule | Recorded measurement
COc1ccc(C(C)=C(c2ccc(Cl)cc2)c2ccc(OCCN3CCCC3)cc2)cc1 [Compound 11] | 1.55
CC(=C(c1ccc(Cl)cc1)c1ccc(OCCN2CCCC2)cc1)c1ccccc1 [Compound 6] | 1.20
COc1ccc(C(C)=C(c2ccc(Cl)cc2)c2ccc(OCCN3CCCCC3)cc2)cc1 [Compound 12] | 2.55
COc1cc(C(C)=C(c2ccc(Cl)cc2)c2ccc(OCCN3CCCCC3)cc2)ccc1F [Compound 24] | 1.19
CC(=C(c1ccc(Cl)cc1)c1ccc(OCCN2CCOCC2)cc1)c1ccccc1 [Compound 8] | 1.11
COc1cc(C(C)=C(c2ccc(Cl)cc2)c2ccc(OCCN3CCCCCC3)cc2)ccc1F [Compound 26] | 1.05
COc1ccc(C(C)=C(c2ccc(Cl)cc2)c2ccc(OCCN3CCCCCC3)cc2)cc1 [Compound 14] | 1.53
CC(=C(c1ccc(Cl)cc1)c1ccc(OCCN2CCCCCC2)cc1)c1ccccc1 [Compound 9] | 1.99

====

# System: 60 NCI tumor cell lines
# Method description: NCI-60 single-dose growth inhibition screen (SRB)
# Format: cell-based, human
# Stated conditions: Homo sapiens, mean over 60 NCI tumor cell lines

Smiles repr | inhibition at 10 µM, %
COc1cc(C(C)=C(c2ccc(Cl)cc2)c2ccc(OCCN3CCCC3)cc2)ccc1F | 46.9
COc1ccc(C(C)=C(c2ccc(O)cc2)c2ccc(Cl)cc2)cc1F | 2.34
COc1cc(C(C)=C(c2ccc(Cl)cc2)c2ccc(OCCN3CCCCCC3)cc2)ccc1F | 28.3
COc1ccc(C(C)=C(c2ccc(Cl)cc2)c2ccc(OCCCN(C)C)cc2)cc1 | 33.4
COc1ccc(C(C)=C(c2ccc(Cl)cc2)c2ccc(OCCN(C)C)cc2)cc1F | 47
COc1ccc(C(C)=C(c2ccc(Cl)cc2)c2ccc(OCCN3CCOCC3)cc2)cc1 | 7.86
COc1cc(C(C)=C(c2ccc(Cl)cc2)c2ccc(OCCN(C)C)cc2)ccc1F | 47.2
COc1ccc(C(C)=C(c2ccc(Cl)cc2)c2ccc(OCCN3CCCCCC3)cc2)cc1F | 60.8

====

# Target or system: human ERα (Homo sapiens, UniProt P03372)
# Construct: host or cells: Saccharomyces cerevisiae
# Method description: Yeast estrogen screen (YES) assay, antagonistic activity (β-galactosidase reporter)
# Type: cell-based, yeast (Saccharomyces cerevisiae)
# Stated conditions: compounds at 1 µM in presence of 0.5 nM/1 nM E2 (E2 set as 1); triplicates
Define the label as yes when Anti-Estrogenic Activity (relative β-galactosidase activity) is strictly less than 1 and as no in all remaining cases.

Smiles repr | Category
COc1cc(C(C)=C(c2ccc(Cl)cc2)c2ccc(OCCN(C)C)cc2)ccc1F | yes
CC(=C(c1ccc(Cl)cc1)c1ccc(OCCCN(C)C)cc1)c1ccccc1 | no
COc1ccc(C(C)=C(c2ccc(Cl)cc2)c2ccc(OCCCN(C)C)cc2)cc1 | no
CCN(CC)CCOc1ccc(C(=C(C)c2ccc(F)c(OC)c2)c2ccc(Cl)cc2)cc1 | yes
COc1cc(C(C)=C(c2ccc(Cl)cc2)c2ccc(OCCCN(C)C)cc2)ccc1F | yes
COc1cc(C(C)=C(c2ccc(Cl)cc2)c2ccc(OCCN3CCCC3)cc2)ccc1F | no
CC(=C(c1ccc(Cl)cc1)c1ccc(OCCN2CCCCC2)cc1)c1ccccc1 | no
COc1cc(C(C)=C(c2ccc(Cl)cc2)c2ccc(OCCN3CCOCC3)cc2)ccc1F | no

====

// values below are reported EC50
# Target or system: human ERα (Homo sapiens, UniProt P03372)
# Method description: Yeast estrogen screen (YES) assay, agonistic activity (β-galactosidase reporter)
# Stated conditions: YES assay; triplicates

Smiles repr | EC50 / nM
COc1ccc(C(C)=C(c2ccc(Cl)cc2)c2ccc(OCCCN(C)C)cc2)cc1F | 440
CCN(CC)CCOc1ccc(C(=C(C)c2ccc(OC)c(F)c2)c2ccc(Cl)cc2)cc1 | 735
COc1ccc(C(C)=C(c2ccc(Cl)cc2)c2ccc(OCCN3CCCCC3)cc2)cc1F | 252
COc1cc(C(C)=C(c2ccc(O)cc2)c2ccc(Cl)cc2)ccc1F | 258
COc1ccc(C(C)=C(c2ccc(Cl)cc2)c2ccc(OCCN3CCCCCC3)cc2)cc1F | 407

====

// values below are reported inhibition at 10 µM
# System: 60 NCI tumor cell lines
# Method description: NCI-60 single-dose growth inhibition screen (SRB)
# Assay type: cell-based, human
# Stated conditions: Homo sapiens, mean over 60 NCI tumor cell lines
Value kind: inhibition at 10 µM

Smiles repr | Recorded measurement
CC(=C(c1ccc(Cl)cc1)c1ccc(OCCN2CCOCC2)cc1)c1ccccc1 | 9.4%
COc1ccc(C(C)=C(c2ccc(Cl)cc2)c2ccc(OCCN3CCCCC3)cc2)cc1 | 55.2%
CCN(CC)CCOc1ccc(C(=C(C)c2ccc(OC)c(F)c2)c2ccc(Cl)cc2)cc1 | 31.2%
COc1ccc(C(C)=C(c2ccc(Cl)cc2)c2ccc(OCCCN(C)C)cc2)cc1F | 47.9%
CC(=C(c1ccc(Cl)cc1)c1ccc(OCCN2CCCC2)cc1)c1ccccc1 | 37.8%
COc1ccc(C(C)=C(c2ccc(Cl)cc2)c2ccc(OCCN3CCCCCC3)cc2)cc1 | 47.3%

====

# Tested on: 60 NCI tumor cell lines
# Method description: NCI-60 single-dose growth inhibition screen (SRB)
# Format: cell-based, human
# Stated conditions: Homo sapiens, mean over 60 NCI tumor cell lines
// values below are reported inhibition at 10 µM

Smiles repr | inhibition at 10 µM [%]
COc1cc(C(C)=C(c2ccc(Cl)cc2)c2ccc(OCCN3CCOCC3)cc2)ccc1F | 12.8
CCN(CC)CCOc1ccc(C(=C(C)c2ccc(F)c(OC)c2)c2ccc(Cl)cc2)cc1 | 92.3
COc1cc(C(C)=C(c2ccc(Cl)cc2)c2ccc(OCCCN(C)C)cc2)ccc1F | 18.6
CC(=C(c1ccc(Cl)cc1)c1ccc(OCCN2CCCCCC2)cc1)c1ccccc1 | 25.4
CC(=C(c1ccc(Cl)cc1)c1ccc(OCCCN(C)C)cc1)c1ccccc1 | 15.4
COc1ccc(C(C)=C(c2ccc(Cl)cc2)c2ccc(OCCN3CCOCC3)cc2)cc1F | 4.23
CC(=C(c1ccc(Cl)cc1)c1ccc(OCCN2CCCCC2)cc1)c1ccccc1 | 29
COc1cc(C(C)=C(c2ccc(Cl)cc2)c2ccc(OCCN3CCCCC3)cc2)ccc1F | 29.2
